Tested on: K562
experiment: Cytotoxicity against human K562 cells assessed as cell growth level at 10 uM after 48 hrs by sulforhodamine B assay
Type: functional
Reported Activity values for the following molecules.
Return type: number; implicit unit %.

Here are 2 molecules together with their reported answers.
CCSc1nc2cc3c(cc2o1)C(=O)c1ccccc1C3=O: 96.26
O=C(CCN1CCCC1)Nc1cc2c(cc1O)C(=O)c1ccccc1C2=O: 106.34

Query: Give Activity for `CN(C)CCCSc1nc2cc3c(cc2o1)C(=O)c1ccccc1C3=O`
Reply: 51.17

Query: Give me measured Activity, please, for this molecule: `O=C1c2ccccc2C(=O)c2cc3oc(SCc4ccc(F)cc4)nc3cc21`
Reply: 93.54

====

experiment: Cytotoxicity against human OVCAR5 cells assessed as cell growth level at 10 uM after 48 hrs by sulforhodamine B assay
Type: functional, OVCAR-5
Recorded measurements of Activity, one per entry
Please respond with the number in % and leave the unit unwritten.

Query: Give Activity for the following compound: `CCSc1nc2cc3c(cc2o1)C(=O)c1ccccc1C3=O`
Reply: 104.57

Query: Using known records, supply Activity for `O=C1c2ccccc2C(=O)c2cc3oc(SCc4ccc(F)cc4)nc3cc21`
Reply: 94.94

Query: Please indicate Activity recorded for `O=C(CCN1CCCC1)Nc1cc2c(cc1O)C(=O)c1ccccc1C2=O`
Reply: 100.56

Query: Please report Activity for the following compound: `CN(C)CCCSc1nc2cc3c(cc2o1)C(=O)c1ccccc1C3=O`
Reply: 86.43

====

System: LOX IMVI
experiment: Cytotoxicity against human LOXIMVI cells assessed as cell growth level at 10 uM after 48 hrs by sulforhodamine B assay
Assay type: functional
# Activity per record follows
Write the number in % without appending the unit.

As a guide, the following entries are already answered.
CN(C)CCCSc1nc2cc3c(cc2o1)C(=O)c1ccccc1C3=O: 76.64
O=C1c2ccccc2C(=O)c2cc3oc(SCc4ccc(F)cc4)nc3cc21: 94.24

Query: Provide Activity value for the following compound: `O=C(CCN1CCCC1)Nc1cc2c(cc1O)C(=O)c1ccccc1C2=O`
Reply: 107.45

Query: Identify measured Activity associated with `CCSc1nc2cc3c(cc2o1)C(=O)c1ccccc1C3=O`
Reply: 91

====

experiment: Cytotoxicity against human SKOV3 cells assessed as cell growth level at 10 uM after 48 hrs by sulforhodamine B assay
Assay type: functional, SK-OV-3
Listed below: Activity values for each entry.
Kindly answer with a numeric value in %, unit omitted.

Before answering, review these 3 worked examples.
CCSc1nc2cc3c(cc2o1)C(=O)c1ccccc1C3=O: 90.67
O=C1c2ccccc2C(=O)c2cc3oc(SCc4ccc(F)cc4)nc3cc21: 86.24
CN(C)CCCSc1nc2cc3c(cc2o1)C(=O)c1ccccc1C3=O: 77.71

Now look at this entry.
Query: Indicate the recorded Activity value for this compound: `O=C(CCN1CCCC1)Nc1cc2c(cc1O)C(=O)c1ccccc1C2=O`
Reply: 104.33

====

System: CAKI-1
experiment: Cytotoxicity against human CAKI-1 cells assessed as cell growth level at 10 uM after 48 hrs by sulforhodamine B assay
Type: functional
measured.attribute: Activity (%)
Answer in %, number only, no unit symbol.

O=C(CCN1CCCC1)Nc1cc2c(cc1O)C(=O)c1ccccc1C2=O: 82.42
CCSc1nc2cc3c(cc2o1)C(=O)c1ccccc1C3=O: 93.49
CN(C)CCCSc1nc2cc3c(cc2o1)C(=O)c1ccccc1C3=O: 73.88

Continue with the next molecule.
Query: Give the reported value of Activity for this record: `O=C1c2ccccc2C(=O)c2cc3oc(SCc4ccc(F)cc4)nc3cc21`
Reply: 90.54

====

System: SK-MEL-5
experiment: Cytotoxicity against human SK-MEL-5 cells assessed as cell growth level at 10 uM after 48 hrs by sulforhodamine B assay
Assay type: functional
measured.attribute: Activity (%)
Kindly provide the numeric value in % only, without the unit symbol.

Solved entries:
O=C(CCN1CCCC1)Nc1cc2c(cc1O)C(=O)c1ccccc1C2=O: 102.47
O=C1c2ccccc2C(=O)c2cc3oc(SCc4ccc(F)cc4)nc3cc21: 97.58

Query: Report Activity, nothing else, for this compound: `CN(C)CCCSc1nc2cc3c(cc2o1)C(=O)c1ccccc1C3=O`
Reply: 90.17

Query: Please supply the value of reported Activity for the item `CCSc1nc2cc3c(cc2o1)C(=O)c1ccccc1C3=O`
Reply: 100.35

====

System: RPMI-8226
experiment: Cytotoxicity against human RPMI8226 cells assessed as cell growth level at 10 uM after 48 hrs by sulforhodamine B assay
Format: functional
Consider the following compounds and their measured Activity readings.
Report only the number, with the unit % understood.

CCSc1nc2cc3c(cc2o1)C(=O)c1ccccc1C3=O: 91.04
CN(C)CCCSc1nc2cc3c(cc2o1)C(=O)c1ccccc1C3=O: 84.91
O=C(CCN1CCCC1)Nc1cc2c(cc1O)C(=O)c1ccccc1C2=O: 86.61

Turning to the following compound.
Query: Entry `O=C1c2ccccc2C(=O)c2cc3oc(SCc4ccc(F)cc4)nc3cc21` needs its Activity filled in; supply it.
Reply: 96.5

====

experiment: Cytotoxicity against human PC3 cells assessed as cell growth level at 10 uM after 48 hrs by sulforhodamine B assay
Format: functional, PC-3
measured.attribute: Activity

The cases that follow already have their Activity on record.
O=C1c2ccccc2C(=O)c2cc3oc(SCc4ccc(F)cc4)nc3cc21: 88.52%
CCSc1nc2cc3c(cc2o1)C(=O)c1ccccc1C3=O: 84.23%
CN(C)CCCSc1nc2cc3c(cc2o1)C(=O)c1ccccc1C3=O: 85.96%

Please turn your attention to the following entry.
Query: Supply measured Activity of `O=C(CCN1CCCC1)Nc1cc2c(cc1O)C(=O)c1ccccc1C2=O` in your reply.
Reply: 91.56%

====

Catalogue of molecules with associated Activity
Test system: A549
experiment: Cytotoxicity against human A549/ATCC cells assessed as cell growth level at 10 uM after 48 hrs by sulforhodamine B assay
Assay type: functional
Number in %, nothing else.

CCSc1nc2cc3c(cc2o1)C(=O)c1ccccc1C3=O: 96.49
CN(C)CCCSc1nc2cc3c(cc2o1)C(=O)c1ccccc1C3=O: 54.13
O=C(CCN1CCCC1)Nc1cc2c(cc1O)C(=O)c1ccccc1C2=O: 98.4

Note: attention shifts to another entry.
Query: # return recorded Activity for input `O=C1c2ccccc2C(=O)c2cc3oc(SCc4ccc(F)cc4)nc3cc21`
Reply: 83.66

====

The molecules listed here are annotated with their Activity.
experiment: Cytotoxicity against human OVCAR8 cells assessed as cell growth level at 10 uM after 48 hrs by sulforhodamine B assay
Format: functional, OVCAR-8
Value expressed in %; do not type the unit.

Example results:
CCSc1nc2cc3c(cc2o1)C(=O)c1ccccc1C3=O: 92.46
O=C(CCN1CCCC1)Nc1cc2c(cc1O)C(=O)c1ccccc1C2=O: 100.18
CN(C)CCCSc1nc2cc3c(cc2o1)C(=O)c1ccccc1C3=O: 72.26

In the following, a different molecule is considered.
Query: Given the molecule `O=C1c2ccccc2C(=O)c2cc3oc(SCc4ccc(F)cc4)nc3cc21` , write its reported Activity.
Reply: 94.89

====

Tested on: SW-620
experiment: Cytotoxicity against human SW620 cells assessed as cell growth level at 10 uM after 48 hrs by sulforhodamine B assay
Type: functional
We begin with a simple list: items and their reported Activity.
Give the number; % is assumed, so skip it.

CN(C)CCCSc1nc2cc3c(cc2o1)C(=O)c1ccccc1C3=O: 69.11

Query: Return Activity (reported value) for this molecule: `O=C(CCN1CCCC1)Nc1cc2c(cc1O)C(=O)c1ccccc1C2=O`
Reply: 106.36

Query: Give a short answer stating reported Activity for `O=C1c2ccccc2C(=O)c2cc3oc(SCc4ccc(F)cc4)nc3cc21` .
Reply: 100.32

Query: Using the record for `CCSc1nc2cc3c(cc2o1)C(=O)c1ccccc1C3=O` , state its measured Activity.
Reply: 91.86

====

experiment: Cytotoxicity against human NCI-ADR-RES cells assessed as cell growth level at 10 uM after 48 hrs by sulforhodamine B assay
Assay type: functional
# key: entry, value: Activity
Please give a number only; it is taken to be in %.

Some solved cases for reference:
CCSc1nc2cc3c(cc2o1)C(=O)c1ccccc1C3=O: 95.82
CN(C)CCCSc1nc2cc3c(cc2o1)C(=O)c1ccccc1C3=O: 90.68
O=C(CCN1CCCC1)Nc1cc2c(cc1O)C(=O)c1ccccc1C2=O: 103.64

Query: Please give the documented Activity of `O=C1c2ccccc2C(=O)c2cc3oc(SCc4ccc(F)cc4)nc3cc21`
Reply: 91.27

====

System: SK-MEL-2
experiment: Cytotoxicity against human SK-MEL-2 cells assessed as cell growth level at 10 uM after 48 hrs by sulforhodamine B assay
Type: functional
measured.attribute: Activity (%)
Please reply with the bare figure in % and do not write the unit itself.

CCSc1nc2cc3c(cc2o1)C(=O)c1ccccc1C3=O: 96.71
CN(C)CCCSc1nc2cc3c(cc2o1)C(=O)c1ccccc1C3=O: 92.13
O=C(CCN1CCCC1)Nc1cc2c(cc1O)C(=O)c1ccccc1C2=O: 102.06

Next, consider the following compound.
Query: Answer with reported Activity of `O=C1c2ccccc2C(=O)c2cc3oc(SCc4ccc(F)cc4)nc3cc21`
Reply: 86.04
